Hey, just so you know, these numbers are from patent EP4786492A1.

Give MFI for every item shown.
molecular target: monkey DLL3 on CHO-K1-cyno DLL3 cells (cynomolgus monkey); test: FACS, CHO-K1-cyno DLL3 cells, 0.0064 nM antibody
Sequence (chain, as listed by the source limits assumed): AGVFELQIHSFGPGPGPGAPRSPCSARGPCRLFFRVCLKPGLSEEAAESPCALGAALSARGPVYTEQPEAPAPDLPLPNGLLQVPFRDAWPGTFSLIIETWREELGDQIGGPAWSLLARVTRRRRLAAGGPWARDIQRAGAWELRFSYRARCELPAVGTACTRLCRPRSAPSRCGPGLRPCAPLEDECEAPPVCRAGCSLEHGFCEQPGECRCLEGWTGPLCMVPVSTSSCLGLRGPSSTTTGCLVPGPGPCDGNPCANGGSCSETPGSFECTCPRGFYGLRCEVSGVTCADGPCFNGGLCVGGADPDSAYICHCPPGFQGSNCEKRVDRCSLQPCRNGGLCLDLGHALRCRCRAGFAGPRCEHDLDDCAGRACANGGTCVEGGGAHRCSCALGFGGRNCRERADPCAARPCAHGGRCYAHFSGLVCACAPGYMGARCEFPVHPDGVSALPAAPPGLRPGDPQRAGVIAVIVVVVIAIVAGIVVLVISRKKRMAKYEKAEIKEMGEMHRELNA

Prompt: Recorded MFI of Hab014VL1VH2-hFc (scFv, part only; not given: VL-VH linker and human IgG1 Fc, V domains shown, not shown: another chain or arm of the molecule; a dimerising Fc or GST; small tags and cut ends) VL: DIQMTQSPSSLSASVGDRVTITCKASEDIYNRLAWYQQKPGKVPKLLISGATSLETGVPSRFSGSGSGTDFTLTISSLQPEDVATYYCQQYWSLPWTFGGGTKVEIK VH: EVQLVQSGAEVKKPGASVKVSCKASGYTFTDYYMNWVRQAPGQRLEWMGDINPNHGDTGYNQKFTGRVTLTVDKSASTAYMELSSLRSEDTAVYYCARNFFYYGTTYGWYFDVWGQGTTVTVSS , please.
Completion: 306 MFI

Prompt: Recorded MFI of Hab015VL4VH1b-hFc (scFv, part only; not given: VL-VH linker and human IgG1 Fc, V domains shown, not shown: another chain or arm of the molecule; a dimerising Fc or GST; small tags and cut ends) VL: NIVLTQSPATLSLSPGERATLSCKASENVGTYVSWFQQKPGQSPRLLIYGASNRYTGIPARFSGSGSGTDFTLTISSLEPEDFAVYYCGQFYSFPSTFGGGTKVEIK VH: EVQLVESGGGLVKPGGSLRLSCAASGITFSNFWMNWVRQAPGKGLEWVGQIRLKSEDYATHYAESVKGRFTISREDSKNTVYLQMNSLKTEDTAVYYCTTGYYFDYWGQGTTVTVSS , please.
Completion: 163 MFI

Prompt: Recorded MFI of Hab015VL5VH5a-hFc (scFv, part only; not given: scFv linker and human IgG1 Fc, V domains shown, not shown: another chain or arm of the molecule; a dimerising Fc or GST; small tags and cut ends) VL: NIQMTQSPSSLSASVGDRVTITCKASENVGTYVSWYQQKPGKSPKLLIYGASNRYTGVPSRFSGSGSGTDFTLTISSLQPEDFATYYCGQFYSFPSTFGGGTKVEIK VH: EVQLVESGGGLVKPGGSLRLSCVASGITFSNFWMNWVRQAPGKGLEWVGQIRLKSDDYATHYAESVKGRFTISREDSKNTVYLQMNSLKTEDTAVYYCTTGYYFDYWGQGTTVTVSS , please.
Completion: 194 MFI

Prompt: Recorded MFI of Hab006VL1VH4-hFc (scFv, part only; not given: VL-VH linker and human IgG1 Fc, V domains shown, not shown: another chain or arm of the molecule; a dimerising Fc or GST; small tags and cut ends) VL: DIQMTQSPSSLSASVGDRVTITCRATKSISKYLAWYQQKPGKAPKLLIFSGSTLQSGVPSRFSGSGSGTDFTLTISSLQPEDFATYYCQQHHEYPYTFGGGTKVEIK VH: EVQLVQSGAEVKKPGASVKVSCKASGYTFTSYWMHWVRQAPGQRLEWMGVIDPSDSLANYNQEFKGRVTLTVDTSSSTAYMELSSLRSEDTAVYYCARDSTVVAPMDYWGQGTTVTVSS , please.
Completion: 1380 MFI
